Tested on: HepG2
Assay: Cytotoxicity against human HepG2 cells
Format: functional, cell-based
IC50 less than 4 mg/L is condition met; IC50 greater than or equal to 4 mg/L is condition not met.

| compound | qualitative.label |
| --- | --- |
| CC(=O)O[C@H]1C(=O)[C@@]2(C)[C@H]([C@H](OC(=O)c3ccccc3)[C@]3(O)C[C@H](OC(=O)[C@H](O)[C@@H](NC(=O)c4ccccc4)c4ccccc4)C(C)=C1C3(C)C)[C@]1(OC(C)=O)CO[C@@H]1C[C@@H]2O [PACLITAXEL] | condition met |
| COc1ccc2cc1Oc1ccc(cc1)C[C@H]1c3cc(O)c(c(OC)c3CC[N+]1(C)C)Oc1cc3c(cc1OC)CC[N+](C)=C3C2.[Cl-].[Cl-] | condition not met |
| COc1ccc2c(c1O)[C@]13CCN[C@@H](C2)C1C(OC)[C@@H](O)[C@@H](O)C3 (stereo partly specified) | condition met |
| COc1cc2c(c(OC)c1OC)CCN1C(=O)c3c(ccc(OC)c3OC)C[C@@H]21 | condition not met |
| COc1cc2c3c4c1Oc1cc5c(cc1O4)C(=NCC5)Cc1ccc(O)c(c1)Oc1ccc(cc1)C[C@@H]3N(C)CC2 [DEHYDROAPATELINE] | condition met |
| COc1ccc2cc1Oc1ccc(cc1)C[C@H]1c3c(cc(OC)c4c3Oc3cc5c(cc3O4)CCN(C)[C@H]5C2)CCN1C [ISOTRILOBINE] | condition met |

---

Experiment: Cytotoxicity against human Hep3B cells
Format: functional, cell-based, Hep 3B2

| compound | unit.of.measurement | sign.qualifier | IC50 |
| --- | --- | --- | --- |
| COc1ccc2cc1Oc1ccc(cc1)C[C@H]1c3c(cc(OC)c4c3Oc3cc5c(cc3O4)CCN(C)[C@H]5C2)CCN1C [ISOTRILOBINE] | µg/mL | = | 0.75 |
| COc1cc2c(c(OC)c1OC)CCN1C(=O)c3c(ccc(OC)c3OC)C[C@@H]21 | µg/mL | > | 30 |
| COc1cc2c3c4c1Oc1cc5c(cc1O4)C(=NCC5)Cc1ccc(O)c(c1)Oc1ccc(cc1)C[C@@H]3N(C)CC2 [DEHYDROAPATELINE] | µg/mL | = | 4.82 |
| CC(=O)O[C@H]1C(=O)[C@@]2(C)[C@H]([C@H](OC(=O)c3ccccc3)[C@]3(O)C[C@H](OC(=O)[C@H](O)[C@@H](NC(=O)c4ccccc4)c4ccccc4)C(C)=C1C3(C)C)[C@]1(OC(C)=O)CO[C@@H]1C[C@@H]2O [PACLITAXEL] | µg/mL | = | 0.08 |
| COc1ccc2cc1Oc1ccc(cc1)C[C@H]1c3cc(O)c(c(OC)c3CC[N+]1(C)C)Oc1cc3c(cc1OC)CC[N+](C)=C3C2.[Cl-].[Cl-] | µg/mL | > | 30 |
| COc1ccc2c(c1O)[C@]13CCN[C@@H](C2)C1C(OC)[C@@H](O)[C@@H](O)C3 (stereo partly specified) | µg/mL | = | 2 |
